# System: [3H]-ADMA transport across the blood-brain and blood-CSF barriers
# Experiment: self-inhibition, in situ perfusion: [^3H]-ADMA with 100 μM unlabelled ADMA
# Type: in vivo, mouse
# Experimental context: male, Balb/c, mouse, thalamus, other: in situ brain perfusion, with unlabelled ADMA 100 µM, Difference (ADMA minus Sucrose), thalamus, + 100uM un-labelled ADMA, 10 mins, Balb/c ♂, 5ml/min; mean
# Protocol: Self-inhibition experiments were also performed. […] Cross-competition experiments were also performed. The percentage change in the RTissue uptake values achieved in the absence or presence of an unlabelled inhibitor can be calculated by means of Eq 4. %change=RTissue−RInhibition/RTissue×100 Eq 4 We define RInhibition as the RTissue uptake in the presence of an inhibitor in the artificial plasma. […]
Where a name gives a salt, the structure may show the parent alone.
Measure: Kp at 10 min, 62.5 nM

>>> df
                                   compound  observed_result
0  CN(C)C(N)=NCCC[C@H](N)C(=O)O [ADMA, N^G,N^G-dimethylarginine dihydrochloride]           0.0727
